Tgt: ABL1 (V299L) (Homo sapiens (Human), UniProt P00519, V299L)
Assay explanation: Radioactivity-based ABL kinase assay
Experimental conditions: 100 μM 33P-ATP
Measured property: IC50 (nM)
Response body: numeric value in nM, unit text excluded.

Kindly note the recorded IC50 for Cc1c(F)cncc1-c1cc2cnc(NC(=O)[C@@H]3C[C@@H]3F)cc2n(C)c1=O , which is 0.19

====

Test system: A375 (BRAF V600E)
Assay explanation: Cell viability assay (CellTiter Glo)
Format: cell-based
Experimental conditions: Homo sapiens, A-375, 72 h, A375, 1000 cells seeded per well, read-out: BRAF Cytotoxicity (IC50, nM) A375 (1000 cells)
Measured property: IC50
Please answer in the form of a number followed by its unit of measurement.

Recorded IC50 for CC[C@@H](O)c1cc(C)c(-c2cc3cnc(NC(=O)[C@H]4C[C@H]4F)cc3n(C)c2=O)cn1 on A375 (BRAF V600E) was 1630 nM

Recorded IC50 for CC[C@H](O)c1cc(C)c(-c2cc3cnc(NC(=O)C4CC4)cc3n(C)c2=O)cn1 on A375 (BRAF V600E) was 354 nM

Recorded IC50 for CC[C@@H](O)c1cc(C)c(-c2cc3cnc(NC(=O)C4CC4)cc3n(C)c2=O)cn1 on A375 (BRAF V600E) was 871 nM

Recorded IC50 for CC[C@H](O)c1cc(C)c(-c2cc3cnc(NC(=O)[C@H]4C[C@H]4F)cc3n(C)c2=O)cn1 on A375 (BRAF V600E) was 308 nM

====

Kindly supply the reported pIC50 values for the records listed here.
Tgt: ABL1 (G250E) (Homo sapiens (Human), UniProt P00519, G250E)
Assay explanation: Radioactivity-based ABL kinase assay
Experimental conditions: 100 μM 33P-ATP
Lab note — pIC50 values are minus log10 of concentrations in M.

Kindly note the recorded pIC50 for Cc1c(F)cncc1-c1cc2cnc(NC(=O)C3CC3)cc2n(C)c1=O , which is 8.82

Kindly note the recorded pIC50 for Cc1c(F)cncc1-c1cc2cnc(NC(=O)[C@@H]3C[C@@H]3F)cc2n(C)c1=O , which is 8.43

====

Test system: SK-MEL-30 (NRAS Q61K)
Assay explanation: Cell viability assay (CellTiter Glo)
Format: cell-based
Experimental conditions: SK-MEL-30, 750 cells per well, 120 hours; read-out: BRAF Cytotoxicity (IC50, nM) SK-MEL-30
Kindly supply the reported IC50 values for the records listed here.
Response body: numeric value in nM, unit text excluded.

Kindly note the recorded IC50 for COCC(O)c1cc(C)c(-c2cc3cnc(NC(=O)C4CC4)cc3n(C)c2=O)cn1 (single isomer, unassigned) [Example S60, Enantiomer B] , which is 3260

Kindly note the recorded IC50 for CCCC(O)c1cc(C)c(-c2cc3cnc(NC(=O)[C@H]4C[C@H]4F)cc3n(C)c2=O)cn1 (single isomer, unassigned) [Example S43, Isomer A] , which is 399

Kindly note the recorded IC50 for CCC(O)c1cc(C)c(-c2cc3cnc(NC(=O)[C@H]4CC4(F)F)cc3n(C)c2=O)cn1 (single isomer, unassigned) [Example S49, Isomer B] , which is 103

Kindly note the recorded IC50 for CCC(O)c1cc(C)c(-c2cc3cnc(NC(=O)[C@@H]4C[C@@H]4F)cc3n(C)c2=O)cn1 (single isomer, unassigned; isomer a) [Example S40, Isomer A] , which is 446

====

Tgt: ABL1 (E255K) (Homo sapiens (Human), UniProt P00519, E255K)
Assay explanation: Radioactivity-based ABL kinase assay
Experimental conditions: 100 μM 33P-ATP
Protocol: The following kinase assay was based on Anastassiadis et al (2011) Nat Biotech, 29:1039-1045. […] Serial dilutions of compounds were prepared in 100% DMSO Compounds or DMSO only (vehicle control) were then added to the kinase reaction mixture and incubated for 20 minutes at room temperature. […] Radioactivity was then measured by radioisotope filter-binding. Kinase activity data were expressed as the percent remaining kinase activity in test samples compared to vehicle control reactions. […]
Kindly supply the reported pIC50 values for the records listed here.
Lab note — pIC50 values are minus log10 of concentrations in M.

Kindly note the recorded pIC50 for Cc1c(F)cncc1-c1cc2cnc(NC(=O)[C@@H]3C[C@@H]3F)cc2n(C)c1=O , which is 8.47

Kindly note the recorded pIC50 for Cc1c(F)cncc1-c1cc2cnc(NC(=O)C3CC3)cc2n(C)c1=O , which is 8.70

====

Tgt: ABL1 (Homo sapiens (Human), UniProt P00519)
Assay explanation: Radioactivity-based ABL kinase assay
Format: biochemical
Experimental conditions: 100 μM 33P-ATP
Kindly supply the reported pIC50 values for the records listed here.
Lab note — pIC50 values are minus log10 of concentrations in M.

Kindly note the recorded pIC50 for Cc1c(F)cncc1-c1cc2cnc(NC(=O)[C@@H]3C[C@@H]3F)cc2n(C)c1=O [Compound 28] , which is 8.92

Kindly note the recorded pIC50 for Cc1c(F)cncc1-c1cc2cnc(NC(=O)C3CC3)cc2n(C)c1=O [Compound 2] , which is 9.21

====

Tgt: ABL1 (Y253F) (Homo sapiens (Human), UniProt P00519, Y253F)
Assay explanation: Radioactivity-based ABL kinase assay
Assay type: biochemical
Experimental conditions: 100 μM 33P-ATP
Measured property: IC50 (nM)
Response body: numeric value in nM, unit text excluded.

Recorded IC50 for Cc1c(F)cncc1-c1cc2cnc(NC(=O)[C@@H]3C[C@@H]3F)cc2n(C)c1=O on ABL1 (Y253F) (Homo sapiens (Human), UniProt P00519, Y253F) was 0.53

====

Tgt: ABL1 (T315I) (Homo sapiens (Human), UniProt P00519, T315I)
Assay explanation: Radioactivity-based ABL kinase assay
Assay type: biochemical
Experimental conditions: 100 μM 33P-ATP
Measured property: IC50 (µM)
Response body: numeric value in µM, unit text excluded.

Recorded IC50 for Cc1c(F)cncc1-c1cc2cnc(NC(=O)C3CC3)cc2n(C)c1=O on ABL1 (T315I) (Homo sapiens (Human), UniProt P00519, T315I) was 4.4

====

Tgt: ABL1 (Homo sapiens (Human))
Assay explanation: Luminescence-based ABL kinase assay (Km ATP), ADP-Glo
Type: biochemical
Experimental conditions: measured using the Abl1 Km assay, read-out: IC50 (nM), value inside parentheses
Measured property: IC50 (nM)
Response body: numeric value in nM, unit text excluded.

Kindly note the recorded IC50 for Cc1c(F)cncc1-c1cc2cnc(NC(=O)C3CC3)cc2n(C)c1=O , which is 1.8

Kindly note the recorded IC50 for Cc1c(F)cncc1-c1cc2cnc(NC(=O)[C@@H]3C[C@@H]3F)cc2n(C)c1=O , which is 2.2

====

Tgt: ABL1 (F317L) (Homo sapiens (Human), UniProt P00519, F317L)
Assay explanation: Radioactivity-based ABL kinase assay
Experimental conditions: 100 μM 33P-ATP
Measured property: IC50 (nM)
Response body: numeric value in nM, unit text excluded.

Kindly note the recorded IC50 for Cc1c(F)cncc1-c1cc2cnc(NC(=O)C3CC3)cc2n(C)c1=O [Compound 2] , which is 17

Kindly note the recorded IC50 for Cc1c(F)cncc1-c1cc2cnc(NC(=O)[C@@H]3C[C@@H]3F)cc2n(C)c1=O [Compound 28] , which is 107

====

Tgt: ABL1 (H396P) (Homo sapiens (Human), UniProt P00519, H396P)
Assay explanation: Radioactivity-based ABL kinase assay
Experimental conditions: 100 μM 33P-ATP
Measured property: IC50 (nM)
Response body: numeric value in nM, unit text excluded.

Kindly note the recorded IC50 for Cc1c(F)cncc1-c1cc2cnc(NC(=O)[C@@H]3C[C@@H]3F)cc2n(C)c1=O [Compound 28] , which is 1.4

Kindly note the recorded IC50 for Cc1c(F)cncc1-c1cc2cnc(NC(=O)C3CC3)cc2n(C)c1=O [Compound 2] , which is 1.2

====

System: OCI-AML-2 (MBNL1-CRAF fusion)
Assay explanation: Cell viability assay (CellTiter Glo)
Assay type: cell-based
Experimental conditions: Homo sapiens, OCI-AML2, 72 h, OCI-AML-2, 1000 cells per well, read-out: BRAF Cytotoxicity (IC50, nM) OCI-AML-2
Returns: string. Value is Yes if measured IC50 is below 400 nM, and No if it is greater than or equal to it.

I wonder whether CC[C@H](O)c1cc(C)c(-c2cc3cnc(NC(=O)C4CC4)cc3n(C)c2=O)cn1 has IC50 below 400 nM. Can you tell?
No

I wonder whether CCCC(=O)c1cc(C)c(-c2cc3cnc(NC(=O)[C@H]4C[C@H]4F)cc3n(C)c2=O)cn1 has IC50 below 400 nM. Can you tell?
No

I wonder whether CC[C@H](O)c1cc(C)c(-c2cc3cnc(NC(=O)[C@H]4C[C@H]4F)cc3n(C)c2=O)cn1 has IC50 below 400 nM. Can you tell?
Yes

I wonder whether CC[C@@H](O)c1cc(C)c(-c2cc3cnc(NC(=O)C4CC4)cc3n(C)c2=O)cn1 has IC50 below 400 nM. Can you tell?
No

I wonder whether CCCC(O)c1cc(C)c(-c2cc3cnc(NC(C)=O)cc3n(C)c2=O)cn1 (single isomer, unassigned) [Example S67, Enantiomer A] has IC50 below 400 nM. Can you tell?
No
